Tested on: Staphylococcus aureus ATCC 25923
Test: Antibacterial broth microdilution growth inhibition (OD600) against S. aureus
Assay type: cell-based
Settings: Staphylococcus aureus, ATCC25923; isolated compounds; S. aureus ATCC 25923; 20 h, 37 °C; read-out: IC50 SA
measured.quantity: IC50

In [3]: df
Out[3]:
                                   molecule  measured_quantity       val
0  CNC(C)C1CCC(N)C(OC2C(N)CC(N)C(OC3OCC(C)(O)C(NC)C3O)C2O)O1 (stereo not shown) [Gentamicin, reference compound]               IC50   0.22 µM
1  COC(=O)c1ccccc1NC(=O)C(CC[S+](C)[O-])NC(=O)c1cnc2c(=O)n(C)c(=O)n(C)c2n1 (stereo not shown) [Penilumamide A]               IC50     88 µM
2  COC(=O)c1ccccc1NC(=O)C(CCSC)NC(=O)c1cnc2c(n1)c(=O)n(C)c(=O)n2C (stereo not shown) [Penilumamide B]               IC50  > 200 µM

Which IC50 value belongs to CC(NC(=O)c1cnc2c(n1)c(=O)n(C)c(=O)n2C)C(=O)Nc1ccccc1C(N)=O (stereo not shown) [Penilumamide D] ? > 200 µM
